B1: FAM107A (parent)
chain: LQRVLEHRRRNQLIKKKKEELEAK

Variants of: B1
ASSAY REMARKS: protein stability index of a GFP-peptide fusion (GPS, HEK-293T) (PSI 1-6); higher = more stable;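 note: lentivirally expressed fusions sorted by FACS into six bins by GFP to DsRed ratio, PSI derived from sequencing read proportions per bin multiplied by bin number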
SETTINGS: c terminus: a fixed tail appended
The following ranges of protein stability index define the classes used here: lower bin (below 3), middle bin (3 to below 4), upper bin (4 or more)

Here's what some known entries look like.
SEQ STRING | ANSWER LABEL
PQRVLEHRRRNQLIKKKKEELEAK [L1P] | upper bin
LQRVLEHERRNQLIKKKKEELEAK [R8E] | upper bin
LQRVLEHRRRNQLIKKKKEELEAN [K24N] | middle bin
LQRVLEHRRRNQLIKKKKEALEAK [E20A] | middle bin
LQRVLEHRRRNQLIKKKKEEVEAK [L21V] | middle bin

Band assignment needed for LQRVLEHRRRNQNIKKKKEELEAK [L13N] please.
middle bin

Band assignment needed for LQRVLEHRRRNQLIKKKKEELTAK [E22T] please.
middle bin

Band assignment needed for LQRVLEHRRRNQLIKKKKEELEWK [A23W] please.
upper bin

Band assignment needed for MQRVLEHRRRNQLIKKKKEELEAK [L1M] please.
middle bin

Band assignment needed for LQRVLEHRRRLQLIKKKKEELEAK [N11L] please.
lower bin

Band assignment needed for LQEVLEHRRRNQLIKKKKEELEAK [R3E] please.
upper bin

Band assignment needed for LQRVLEHRRRNQLIKKKKEKLEAK [E20K] please.
middle bin
